Where do these numbers come from? They come from the supplement of paper PMC10567573.

B1: PDZK1 (parent)
chain: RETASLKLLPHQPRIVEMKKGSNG

Variants of: B1
Assay: protein stability index of a GFP-peptide fusion (GPS, HEK-293T) (PSI 1-6); higher = more stable;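 note: lentivirally expressed fusions sorted by FACS into six bins by GFP to DsRed ratio, PSI derived from sequencing read proportions per bin multiplied by bin number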
Conditions: c terminus: a fixed tail appended
recorded_metric: protein stability index

// known answers, use as guide
variant_key | recorded_metric | measurement
G21T | protein stability index | 2.25
E2Y | protein stability index | 2.64
A4I | protein stability index | 2.47
K20F | protein stability index | 3

Please fill in: protein stability index reported for G24M = 4.17

Please fill in: protein stability index reported for L8F = 3.65

Please fill in: protein stability index reported for I15W = 2.79

Please fill in: protein stability index reported for I15T = 4.49

Please fill in: protein stability index reported for H11L = 3.14

Please fill in: protein stability index reported for L6F = 3.15

Please fill in: protein stability index reported for E2W = 2.36

Please fill in: protein stability index reported for V16T = 4.67

Please fill in: protein stability index reported for G24E = 4.82

Please fill in: protein stability index reported for G24R = 4.03

Please fill in: protein stability index reported for L8E = 3.77

Please fill in: protein stability index reported for N23S = 3.14
